# System: RSV replicon
# test.description: microbe, parasite or virus in culture
# Type: cell-based
# reported.conditions: human respiratory syncytial virus, read-out: EC50, the concentration of the drug required for reducing RSV replicon RNA by 50%
quantity.name: EC50

COc1cc(C(=O)NCC(O)(c2ccc(OC)c(-c3ccc(F)c(Cl)c3)n2)C(F)(F)F)ccc1OC1CCC1 (stereo not shown) : < 1000 nM
COc1cc(C(=O)NCC(O)(c2ccc(OC)c(-c3ccc(F)c(Cl)c3)n2)C(F)(F)F)ccc1OC1CC(F)C1 (stereo not shown) : < 1000 nM
COc1cc(C(=O)NCC(O)(c2cc3c(c(-c4ccc(F)cc4)n2)OCC3(C)N)C(F)(F)F)ccc1OC1CC1 (stereo not shown) : < 1000 nM
COc1cc(C(=O)NCC(O)(c2cc(C(C)(C)N)cc(-c3ccnc(Cl)c3)n2)C(F)(F)F)ccc1OC1CC1 (stereo not shown) : < 1000 nM
